Where these numbers come from: paper PMC5261807

Target: T1, Bdf1 bromodomain 2 (GST-tagged, WT) (Saccharomyces cerevisiae (strain ATCC …, UniProt P35817))
T1 chain: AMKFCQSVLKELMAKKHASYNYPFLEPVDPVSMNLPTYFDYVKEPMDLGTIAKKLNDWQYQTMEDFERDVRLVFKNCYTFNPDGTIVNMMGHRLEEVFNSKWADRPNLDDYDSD
Assay: histone peptide array probed with recombinant GST-bromodomain, signal normalised to myc peptide control
Non-standard residues stand in square brackets, D forms with d. No end group written: not given here. Arg(Me2a) = CN(C)C(=N)NCCC[C@H](N)C(=O)O; Lys(Me3) = C[N+](C)(C)CCCC[C@H](N)C(=O)O; Arg(Me2s) = CN=C(NC)NCCC[C@H](N)C(=O)O; pT = C[C@@H](OP(=O)(O)O)[C@H](N)C(=O)O; Me2a = asymmetric dimethyl (on Arg); Lys(Me2) = CN(C)CCCC[C@H](N)C(=O)O; Me2s = symmetric dimethyl (on Arg); Lys(Me) = CNCCCC[C@H](N)C(=O)O
Please map values of binding score to classes as shown: bottom = under 0.002, middle = from 0.002 up to 0.03, top = 0.03 and over

Before answering, review these 4 worked examples.
Consider SGRGKGGKGLGKGGAKRHR (pS G Rme2s G Kac G G K G L G K G G A K R H R) . To which binding score class does it belong?
top

Consider A[Arg(Me2a)][pT]K(Me)QTARKSTGGKAPRKQ . To which binding score class does it belong?
middle

Consider ARTKQTARKSTGGKAPRKQ (A Rme2a T Kac Q T A Rme2s Kac S T G G K A P R K Q) . To which binding score class does it belong?
top

Consider ARTKQTA[Arg(Me2s)]K(Ac)S[pT]GGKAPRKQ . To which binding score class does it belong?
middle

Others:
Consider ARTKQTARKSTGGKAPRKQ (A Rme2a T Kme3 Q T A Rme2a Kme2 S T G G K A P R K Q) . To which binding score class does it belong?
bottom

Consider ARTKQTARKSTGGKAPRKQ (A Rme2s T Kme1 Q T A Rme2s Kme1 S T G G K A P R K Q) . To which binding score class does it belong?
middle

Consider ARTKQTARKSTGGKAPRKQ (A Rme2s T Kac Q T A Rme2a Kac S T G G K A P R K Q) . To which binding score class does it belong?
top

Consider A[Arg(Me2s)]T[Lys(Me)]QTA[Arg(Me2s)][Lys(Me2)]STGGKAPRKQ . To which binding score class does it belong?
bottom

Consider ARTKQTARKSTGGKAPRKQ (not fully specified) . To which binding score class does it belong?
middle

Consider AR(Me2a)TK(Me)QTAR(Me2s)K(Me)STGGKAPRKQ . To which binding score class does it belong?
bottom

Consider A[Arg(Me2s)]T[Lys(Me2)]QTAR[Lys(Me3)]STGGKAPRKQ . To which binding score class does it belong?
bottom

Consider ARTKQTARKSTGGKAPRKQ (A R T Kme1 Q T A Rme2s Kac S T G G K A P R K Q) . To which binding score class does it belong?
middle

Consider PRKQLATKAAR[Lys(Me)]SAPATGG [H3 16-35] . To which binding score class does it belong?
bottom

Consider A[Arg(Me2s)]T[Lys(Me3)]QTA[Arg(Me2a)][Lys(Me2)]STGGKAPRKQ . To which binding score class does it belong?
bottom

Consider ARTKQTARKSTGGKAPRKQ (A R T Kac Q T A Rme2a Kme3 S T G G K A P R K Q) . To which binding score class does it belong?
bottom
